target.or.test.system: androgen receptor (Homo sapiens)
Sequence (P10275 whole entry, species assumed): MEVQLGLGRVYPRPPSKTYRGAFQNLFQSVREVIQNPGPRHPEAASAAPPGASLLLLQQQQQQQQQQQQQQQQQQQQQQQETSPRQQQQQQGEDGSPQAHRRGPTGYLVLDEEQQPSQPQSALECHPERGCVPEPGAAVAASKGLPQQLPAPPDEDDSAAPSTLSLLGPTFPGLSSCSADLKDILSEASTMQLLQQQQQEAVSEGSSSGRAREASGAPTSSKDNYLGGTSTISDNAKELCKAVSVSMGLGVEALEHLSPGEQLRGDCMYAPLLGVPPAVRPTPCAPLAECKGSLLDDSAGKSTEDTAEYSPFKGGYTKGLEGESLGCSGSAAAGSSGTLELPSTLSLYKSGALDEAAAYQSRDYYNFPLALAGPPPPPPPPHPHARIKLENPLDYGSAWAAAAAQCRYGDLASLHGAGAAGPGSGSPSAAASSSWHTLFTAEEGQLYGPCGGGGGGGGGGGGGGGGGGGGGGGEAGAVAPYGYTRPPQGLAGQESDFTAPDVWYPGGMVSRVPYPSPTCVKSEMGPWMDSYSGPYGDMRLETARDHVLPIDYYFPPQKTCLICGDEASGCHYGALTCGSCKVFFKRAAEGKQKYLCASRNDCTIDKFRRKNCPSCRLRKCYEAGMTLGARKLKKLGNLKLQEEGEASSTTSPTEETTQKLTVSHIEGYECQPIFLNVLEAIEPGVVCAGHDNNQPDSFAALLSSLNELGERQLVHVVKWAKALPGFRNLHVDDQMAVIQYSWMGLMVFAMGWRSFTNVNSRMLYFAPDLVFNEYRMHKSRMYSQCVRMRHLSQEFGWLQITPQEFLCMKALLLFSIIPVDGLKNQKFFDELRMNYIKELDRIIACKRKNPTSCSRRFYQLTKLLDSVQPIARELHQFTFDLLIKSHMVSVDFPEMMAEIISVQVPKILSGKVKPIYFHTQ
protocol.notes: Yeast two-hybrid screening of unbiased X15 peptide library, ligand-induced β-galactosidase activity (FIG. 3, Table 503)
Type: cell-based
Parameters: expressed in transfected cells; host or cells: Saccharomyces cerevisiae PJ69-4α
condition.set: ligand CPA
Listed below: Yeast Specificity Graph (FIG. 3): CPA values for each entry.

Qu. Provide the documented Yeast Specificity Graph (FIG. 3): CPA with androgen receptor (Homo sapiens) as the system for EFPELLAMTRWGRHAALLEPQRLPPPRTTTQPQTEFERMFFFTRPMRTTGLLDLOPS* [B2A7]
Ans. 0.2919
